tested on: 786-0 renal; assay: NCI tumour cell line growth inhibition, 48 h
Readout Label: TGI (µM)

Compound: CC(=O)CCCCn1c(=O)c2c(nc(Br)n2C)n(C)c1=O
Unit Of Measure: µM
Limit Sign: >
Observed: 100
--
Compound: O=[N+]([O-])c1ccc(SN=S=NSc2cccc(SN=S=NSc3ccc([N+](=O)[O-])cc3)c2)cc1
Unit Of Measure: µM
Limit Sign: =
Observed: 27.2
--
Compound: CN(C)c1ccc(/C=C/C(=O)c2ccc(O)cc2)cc1
Unit Of Measure: µM
Limit Sign: >
Observed: 78.3
--
Compound: O=C1c2ccccc2C(=O)c2cc3c(cc21)CS(=O)C3
Unit Of Measure: µM
Limit Sign: >
Observed: 100
--
Compound: Nc1nc2c(N)cc(C(F)(F)F)cc2nc1-c1ccccc1
Unit Of Measure: µM
Limit Sign: >
Observed: 100
--
Compound: FC(F)(F)c1ccccc1C1SCC2=Nc3ccccc3CN21 (stereo unspecified)
Unit Of Measure: µM
Limit Sign: =
Observed: 24.2
--
Compound: Cc1ccc(NC(=O)CCc2nc(=S)[nH][nH]2)cc1
Unit Of Measure: µM
Limit Sign: >
Observed: 100
--
Compound: COc1cc(/C=C2\C(=O)N(Cc3ccc(Cl)cc3)c3ccccc32)cc(OC)c1OC
Unit Of Measure: µM
Limit Sign: =
Observed: 14.9
--
Compound: Nc1nc(Nc2ccc(Cl)c(Cl)c2)nc2nc[nH]c12
Unit Of Measure: µM
Limit Sign: =
Observed: 31.3
--
Compound: COc1ccc(C2c3cc4c(cc3OC(NNc3ccccc3)C2C)OCO4)cc1 (stereo unspecified)
Unit Of Measure: µM
Limit Sign: =
Observed: 51.8
--
Compound: CN(C)CCNC(=O)c1cccc2c1nc(-c1ccc(F)cc1)c1ccccc12
Unit Of Measure: µM
Limit Sign: =
Observed: 18.1

----------
test system: UO-31 renal; assay: NCI tumour cell line growth inhibition, 48 h
Readout Label: TGI

Molecule: C/C(=C/C(=O)Nc1ccccc1)Nc1onc(C)c1C
Observed: > 100 µM

Molecule: O=[N+]([O-])c1ccc(SN=S=NSc2cccc(SN=S=NSc3ccc([N+](=O)[O-])cc3)c2)cc1
Observed: 70.2 µM

Molecule: O=c1[nH]nc(Cc2ccccc2)n1/N=C/c1cccs1
Observed: > 100 µM

Molecule: CC(C)[C@@H]1CC[C@@H](C)C[C@H]1OC(=O)c1c2n(c3ccccc13)C[C@H]1OC(C)(C)O[C@@H]21
Observed: > 100 µM

Molecule: O=C1NC(=NCCc2ccc(F)cc2)S/C1=C\c1ccc2ncccc2c1
Observed: > 25 µM

Molecule: CC(C)=CCc1cc2c(cc1O)C1=C(C(=O)C3=C(C1=O)S(=O)(=O)CCN3)C(C=C(C)C)O2 (configuration not stated)
Observed: 4.59 µM

Molecule: CC(C)(O)/C1=C/C=C/CCCCCCCCCC1
Observed: > 100 µM

Molecule: O=C1Oc2ccccc2C1C/C(=N\Nc1ccccc1)c1ccccc1O (configuration not stated)
Observed: 77.6 µM

Molecule: COc1cc(-c2cc(/C=C/C(=O)c3ccc(F)c(F)c3)[nH]n2)cc(OC)c1OC
Observed: 14.2 µM

Molecule: COC(=O)C1CC2C=CC=CC(=O)C2(C)C1 (configuration not stated)
Observed: > 100 µM

Molecule: Brc1ccc(C2C3CSc4ccccc4C3=NN2c2ccccc2)cc1 (configuration not stated)
Observed: > 100 µM

Molecule: CN(C)c1ccc(/C=C/C(=O)c2ccc(O)cc2)cc1
Observed: > 100 µM

Molecule: O=NN1C(c2ccccc2)CNC(=O)CC1c1ccccc1 (configuration not stated)
Observed: > 83.6 µM

Molecule: N#C/C(=C\c1ccncc1)c1csc2ccccc12
Observed: > 83.2 µM

Molecule: CNC(=O)c1n[nH]n(C2CCCCC2)c1=S
Observed: > 100 µM

Molecule: CCOC(=O)N/N=C(/N)c1cccc(Br)c1
Observed: > 100 µM

Molecule: COc1cc(OC2OC(CO)C(O)C(O)C2O)c2c(O)c3c(=O)cc(C)oc3cc2c1 (configuration not stated)
Observed: > 100 µM

Molecule: Nc1nc(NNc2cccc(F)c2)cc(=O)[nH]1
Observed: > 100 µM

Molecule: O=C1CCN2c3ccccc3[C@H]3Cc4cccc(c4[C@@H]2C3)CCO1
Observed: 76.4 µM

Molecule: O=[N+]([O-])c1ccc(C2=Nc3ccccc3S(=O)C(c3ccccc3)C2)cc1 (configuration not stated)
Observed: 32.2 µM

Molecule: COc1ccc(-c2cc(=O)c3c(O)c(OC)c(OC)c(OC)c3o2)cc1OC
Observed: > 100 µM

Molecule: C=C1CC(C)(COc2ccc3c(C)c(Cl)c(=O)oc3c2)OC1=O (configuration not stated)
Observed: 9.63 µM

----------
system: RXF 393 renal; experiment: NCI tumour cell line growth inhibition, 48 h
# TGI annotations

Query Smiles: C/C(=N\O)c1ccc2ccc3ccccc3c2c1
Target Desc: RXF 393 renal
TGI: > 100 µM
//
Query Smiles: N#C/C(=C\c1ccncc1)c1csc2ccccc12
Target Desc: RXF 393 renal
TGI: > 83.1 µM
//
Query Smiles: Cn1c(=O)c2[nH]c(N=O)nc2n(C)c1=O
Target Desc: RXF 393 renal
TGI: > 100 µM
//
Query Smiles: CCOC(=O)c1c[nH]c(C(=O)OCC)c1-c1cccn1-c1ccccc1
Target Desc: RXF 393 renal
TGI: 43 µM
//
Query Smiles: CC(=O)CCCCn1c(=O)c2c(nc(Br)n2C)n(C)c1=O
Target Desc: RXF 393 renal
TGI: > 100 µM
//
Query Smiles: C=C1C[C@H]2C=Nc3cc(OCCCOc4cc5c(cc4OC)C(=O)N4CC(=C)C[C@H]4C=N5)c(OC)cc3C(=O)N2C1
Target Desc: RXF 393 renal
TGI: < 0.0292 µM

----------
test system: SW-620 colon; assay: NCI tumour cell line growth inhibition, 48 h
# TGI annotations

Compound: CC1=CC2C(C=C1)S(=O)(=O)N1CC21c1ccccc1 (configuration not stated)
TGI: > 100 µM

Compound: COc1ccc(Nc2nc3ccccc3n3cccc23)cc1OC
TGI: 36.6 µM

Compound: COc1nc(N=P(c2ccccc2)(c2ccccc2)c2ccccc2)cc(=O)n1C
TGI: > 100 µM

Compound: NC1NC=NC2C1N=CN2C1OC(CO)C2[O][Sn][O]C21 (configuration not stated)
TGI: > 100 µM

Compound: CCOC(=O)c1c2ccc(/C=C/c3ccccn3)ccc-2c(C(=O)OCC)c1N
TGI: > 100 µM

Compound: NC(N)=N/N=C/c1c(-c2ccsc2)nc2n1CCS2
TGI: > 100 µM

Compound: CC(C)c1cccc(C(C)C)c1NC(=O)C(=O)Cc1nc2ccc([N+](=O)[O-])cc2[nH]c1=O
TGI: > 100 µM

Compound: N#C/C(=C\c1ccncc1)c1csc2ccccc12
TGI: 67.7 µM

Compound: COc1ccc(-n2c(CCC(=O)O)nc3c2C(=O)c2ccccc2C3=O)cc1
TGI: > 100 µM

Compound: O=C1NC(=NCCc2ccc(F)cc2)S/C1=C\c1ccc2ncccc2c1
TGI: > 25 µM

Compound: C[C@H]1CC[P+](Cc2ccccc2)(c2ccccc2)C1 (some centres not stated)
TGI: > 100 µM

Compound: c1ccc(-c2oc(-c3ccccc3)c(CN3CCCCC3)c2CN2CCCCC2)cc1
TGI: 16.4 µM

Compound: CC1=NN=C(C)C1N=Nc1ccc2nc(C)[nH]c2c1
TGI: > 100 µM

Compound: CC(C)(C)c1cc(CCC(=O)Nc2ccc(Cl)cc2)[nH]c(=S)n1
TGI: > 100 µM

Compound: FC(F)(F)c1ccccc1C1SCC2=Nc3ccccc3CN21 (configuration not stated)
TGI: > 100 µM

Compound: CCCn1c2c(c3ccccc3c1=O)C(=O)c1ccccc1-2
TGI: > 100 µM

Compound: Oc1ccc(Cl)cc1C(c1cc(Cl)ccc1O)C(Cl)(Cl)Cl
TGI: 3.3 µM

----------
test system: SNB-19 CNS; assay: NCI tumour cell line growth inhibition, 48 h
Readout Label: TGI

Molecule: S=c1sc2c(s1)SC(c1ccccc1)CS2 (stereo not drawn)
Readout Label: TGI
Observed: > 100 µM

Molecule: COc1cc2c(c(OC)c1OC)-c1ccc(NN(C(=O)c3ccccc3)C(=O)c3ccccc3)c(=O)cc1[C@@H](NC(C)=O)CC2 (tested in a mixture with another compound)
Readout Label: TGI
Observed: > 100 µM

Molecule: CCCCN(CCCC)C(=O)[C@H](CC)[C@@H]1CC[C@@H](C)[C@@H]([C@H](C)[C@@H](O)[C@@H](C)C(=O)[C@H](CC)C2O[C@]3(C=C[C@@H](O)[C@]4(CC[C@@](C)([C@H]5CC[C@](O)(CC)[C@H](C)O5)O4)O3)[C@H](C)C[C@@H]2C)O1 (stereo partly drawn)
Readout Label: TGI
Observed: > 100 µM

Molecule: COC1(CC[C@@H](C)COC2OC(CO)C(O)C(O)C2O)O[C@H]2C[C@H]3[C@@H]4CC=C5C[C@@H](OC6OC(CO)C(OC7OC(C)C(O)C(O)C7O)C(O)C6OC6OC(C)C(O)C(O)C6O)CC[C@]5(C)[C@H]4CC[C@]3(C)[C@H]2[C@@H]1C (stereo partly drawn)
Readout Label: TGI
Observed: 6.54 µM

Molecule: CC1=C(c2nc3ccccc3s2)C(=O)OC1(C)C
Readout Label: TGI
Observed: > 100 µM

Molecule: CN1CCN(CC(=O)N(C)c2ccc(N=C(c3ccccc3)c3c(O)[nH]c4ccc(C#N)cc34)cc2)CC1
Readout Label: TGI
Observed: 16.6 µM

Molecule: Cc1ccc(C(=O)CC2(O)C(=O)Nc3c(C)cc(Cl)cc32)cc1 (stereo not drawn)
Readout Label: TGI
Observed: > 100 µM

Molecule: O=C(NN1C(=O)C(Cl)C1c1ccccc1O)c1ccccc1O (stereo not drawn)
Readout Label: TGI
Observed: 57.9 µM
